test system: A549; experiment: Anticancer activity against human A549 cells assessed as reduction in cell viability measured after 72 hrs by SRB assay; type: functional, cell-based; conditions: A549, 72 h
value.kind: IC50 (µM)
Could you give me the number in µM? Just the number is fine.

Short answer please: IC50, A549, entry C=C1CC[C@@H]2[C@](C)(CO)[C@H](O)CC[C@@]2(C)[C@@H]1C/C=C1/C(=O)OC[C@H]1O [ANDROGRAPHOLIDE]
32

Lab request: please report IC50 under test system A549 for C=C1CC[C@@H]2[C@](C)(COC(C)=O)[C@H](OC(C)=O)CC[C@@]2(C)[C@@H]1C[C@H](SC(=S)N1CCN(Cc2ccc(Cl)cc2)CC1)C1=CCOC1=O
32.8

Query for A549: what IC50 does the record show for C=C1CC[C@@H]2[C@](C)(COC(C)=O)[C@H](OC(C)=O)CC[C@@]2(C)[C@@H]1C[C@H](SC(=S)N1CCN(c2ncccn2)CC1)C1=CCOC1=O ?
18

Give recorded IC50 with A549 for the following molecule: C=C1CC[C@@H]2[C@](C)(COC(C)=O)[C@H](OC(C)=O)CC[C@@]2(C)[C@@H]1C[C@H](SC(=S)N1CCC(Cc2ccccc2)CC1)C1=CCOC1=O
29.1
